experimental_endpoint: melting point

Here's what some known entries look like.
>>> result("O=c1[nH]c(S)ncc1O [6c, 5-Hydroxy-2-mercapto-3H-pyrimidin-4-one]")
"> 300 °C"
>>> result("CSc1nc(N=Nc2ccccc2)c(O)c(=O)[nH]1 [7c]")
"213 to 215 °C"
>>> result("Cc1ncc(OC2CCCCO2)c(=O)[nH]1 (stereo not drawn) [5a]")
"149 to 151 °C"
>>> result("Cc1ncc(O)c(=O)[nH]1 [6a, 5-Hydroxy-2-methylpyrimidin-4(3H)-one]")
"> 300 °C"
>>> result("O=c1[nH]cnc(N=Nc2ccccc2)c1O [7b]")
"244 to 245 °C"
>>> result("Nc1nc[nH]c(=O)c1O [H, 6-Amino-5-hydroxypyrimidin-4(3H)-one]")
"> 300 °C"
>>> result("Cc1nc(N=Nc2ccccc2)c(O)c(=O)[nH]1 [7a]")
"243 to 245 °C"
>>> result("Cc1nc(N)c(O)c(=O)[nH]1 [CH3]")
"> 300 °C"

In the following, a different molecule is considered.
[ask] So what does the record say about melting point for O=c1[nH]c(S)ncc1OC1CCCCO1 (stereo not drawn) [5c] ?
[reply] > 300 °C

This collection of values is drawn from patent US20100008874A1.
